Numbers sourced from PubChem BioAssay (NCI).

Tested on: OVCAR-4 ovarian
Test: NCI tumour cell line growth inhibition, 48 h
endpoint-name: TGI

// below: answered molecules
{"columns": ["molecule", "endpoint-name", "recorded-value"],
 "data": [
  ["COc1ccc(C(=O)CC2(O)C(=O)Nc3c(Cl)ccc(Cl)c32)cc1 (stereo not given)", "TGI", "> 100 µM"],
  ["CC(=O)Oc1c(-c2ccccc2)[nH]c2cc([N+](=O)[O-])c(/C(Cl)=C/c3ccccc3)cc12", "TGI", "39.3 µM"],
  ["O=C(CC1Sc2ccccc2NC1=O)Nc1cccc(Cl)c1 (stereo not given)", "TGI", "> 100 µM"]
]}

Prompt: Please state recorded TGI (tested on OVCAR-4 ovarian) of "COc1ccc(/C=C2/SC(=Nc3c(C)nn(-c4ccccc4)c3N)NC2=O)cc1"
Response: > 100 µM

Prompt: Please state recorded TGI (tested on OVCAR-4 ovarian) of "Cc1ccc(CCC(=O)Nc2ncc(Cc3cc(Cl)ccc3Cl)s2)o1"
Response: > 20.4 µM
